B1: CD207 (parent)
chain: MTVEKEAPDAHFTVDKQNISLWPR

- Variants of: B1
- EXPERIMENT DESCRIPTION: protein stability index of a GFP-peptide fusion (GPS, HEK-293T) (PSI 1-6); higher = more stable;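 also: lentivirally expressed fusions sorted by FACS into six bins by GFP to DsRed ratio, PSI derived from sequencing read proportions per bin multiplied by bin number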
- PROTOCOL CONDITIONS: c terminus: a fixed tail appended
READOUT KIND: protein stability index

Worked cases, protein stability index given:
[[record]]
macromolecule_sequence = "MTVEKEAIDAHFTVDKQNISLWPR [P8I]"
readout_kind = "protein stability index"
result = 3.22

[[record]]
macromolecule_sequence = "MTVEKECPDAHFTVDKQNISLWPR [A7C]"
readout_kind = "protein stability index"
result = 3.31

[[record]]
macromolecule_sequence = "MTVEKEAPDTHFTVDKQNISLWPR [A10T]"
readout_kind = "protein stability index"
result = 3.83

[[record]]
macromolecule_sequence = "MTVEKEAPDAHFTVDKQNIGLWPR [S20G]"
readout_kind = "protein stability index"
result = 3.29


Input: What does the record list as protein stability index for MTVIKEAPDAHFTVDKQNISLWPR [E4I] ?
Output: 2.56

Input: What does the record list as protein stability index for MTVEKEAPDAHFTVDKQNISWWPR [L21W] ?
Output: 3.12

Input: What does the record list as protein stability index for MTVEKDAPDAHFTVDKQNISLWPR [E6D] ?
Output: 3.31

Input: What does the record list as protein stability index for MVVEKEAPDAHFTVDKQNISLWPR [T2V] ?
Output: 3.21

Input: What does the record list as protein stability index for MTVEKEAPDAHFTVDKQNIMLWPR [S20M] ?
Output: 2.81

Input: What does the record list as protein stability index for MTVEKEAPDAHFTVDKQAISLWPR [N18A] ?
Output: 4.24

Input: What does the record list as protein stability index for MTVEKEAPDAHFTVDGQNISLWPR [K16G] ?
Output: 3.8

Input: What does the record list as protein stability index for MTVEKEAKDAHFTVDKQNISLWPR [P8K] ?
Output: 3.54

Input: What does the record list as protein stability index for MTVEKEAPDAHFTVDKQNISLWAR [P23A] ?
Output: 3.39

Input: What does the record list as protein stability index for MTVEKEAPDAHFKVDKQNISLWPR [T13K] ?
Output: 3.61

Input: What does the record list as protein stability index for MTVEKEAPLAHFTVDKQNISLWPR [D9L] ?
Output: 2.38

Input: What does the record list as protein stability index for MTVEKEAPDAHFTVDKVNISLWPR [Q17V] ?
Output: 2.39

Input: What does the record list as protein stability index for MTVEKEAPDAHFVVDKQNISLWPR [T13V] ?
Output: 3.42

Input: What does the record list as protein stability index for MTVEKEAPDAHFTVDKQNQSLWPR [I19Q] ?
Output: 3.84

Input: What does the record list as protein stability index for MTVEKEAPDAHFTVDKQNISLNPR [W22N] ?
Output: 4.4

Input: What does the record list as protein stability index for MTVDKEAPDAHFTVDKQNISLWPR [E4D] ?
Output: 3.67

Input: What does the record list as protein stability index for MTVEKEAPDAHFTVDKQNISLCPR [W22C] ?
Output: 4.08

Input: What does the record list as protein stability index for MTVEKEAPDAHFTVDKFNISLWPR [Q17F] ?
Output: 1.89

Origin of measurements: the supplement of paper PMC10567573
